The values you see were collected from patent US9809598B2.

System: Tankyrases
particulars: read-out: EC50 [M] TNKS cellular assay; DLD1 cells, 24 hours, Axin2 increase
quantity-measured: EC50

>>> result("Cn1ncc2c(=O)[nH]c(CCCC(=O)N3CCC(C(=O)c4ccc(C(C)(C)O)cc4)CC3)nc21 [Compound C50]")
"3.8e-07 M"
>>> result("N#Cc1cc(C2CCN(C(=O)CCCc3nc4c(c(=O)[nH]3)COCC4)CC2)cnc1N [Compound C194]")
"3.1e-06 M"
>>> result("Cn1ccc2c(=O)[nH]c(CCCC(=O)N3CCC(C(=O)c4ccc(F)cc4)CC3)nc21 [Compound C186]")
"1.4e-08 M"
>>> result("Cn1cc(C(=O)C2CCN(C(=O)CCCc3nn4cc(F)cc4c(=O)[nH]3)CC2)cn1 [Compound C179]")
"1.7e-08 M"
>>> result("Cn1ncc2c(=O)[nH]c(CCCC(=O)N3CCC(C(=O)c4ccc(C(C)(F)F)cc4)CC3)nc21 [Compound C245]")
"4.8e-09 M"
>>> result("O=C(CCCc1nn2cccc2c(=O)[nH]1)N1CCC(c2nnc(-c3ccccc3)o2)CC1 [Compound C140]")
"1e-07 M"
>>> result("CC(C)(O)c1ccc(C(=O)C2CCN(C(=O)CCCc3nn4cc(F)cc4c(=O)[nH]3)CC2)cc1 [Compound C177]")
"6.7e-08 M"

* * *

assay-system: TNKS1 (Homo sapiens)
Construct: GST-tagged Tnks-1 (1023-1327 aa, prepared in-house); made in house
Sequence (O95271 1023-1327): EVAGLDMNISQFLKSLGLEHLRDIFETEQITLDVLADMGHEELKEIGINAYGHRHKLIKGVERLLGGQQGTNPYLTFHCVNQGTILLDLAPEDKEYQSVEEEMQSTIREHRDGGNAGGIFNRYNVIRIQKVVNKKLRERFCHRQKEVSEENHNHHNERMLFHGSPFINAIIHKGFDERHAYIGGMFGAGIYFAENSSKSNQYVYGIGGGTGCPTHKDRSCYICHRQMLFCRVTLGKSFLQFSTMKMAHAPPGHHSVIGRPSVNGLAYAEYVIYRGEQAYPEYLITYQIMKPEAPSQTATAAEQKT
protocol-text: TNKS1 activity ELISA (autoparsylation assay)
Assay type: biochemical
particulars: GST-tagged Tnks-1 (1023-1327 aa)
The reader will find reported IC50 values listed item by item below.
quantity-measured: IC50 (pM)

>>> numeric_value("Cc1ccc2c(=O)[nH]c(CCCC(=O)N3CCC(C(=O)c4cnn(C(C)C)c4)CC3)nn12 [Compound C223]")
600
>>> numeric_value("COc1ccc(C(=O)C2CCN(C(=O)CCCc3nn4cccc4c(=O)[nH]3)CC2)cn1 [Compound C137]")
1500
>>> numeric_value("COc1ccc(C(=O)C2CCN(C(=O)CCCc3nc4c(cnn4C)c(=O)[nH]3)CC2)cn1 [Compound C43]")
520
>>> numeric_value("CCn1cc(C(=O)C2CCN(C(=O)CCCc3nn4c(C)ccc4c(=O)[nH]3)CC2)cn1 [Compound C222]")
240
>>> numeric_value("COc1ccc(C(=O)C2CCN(C(=O)CCCc3cn4c(Cl)ccc4c(=O)[nH]3)CC2)cc1 [Compound C11]")
140
>>> numeric_value("N#Cc1ccc(OC2CCN(C(=O)CCCc3nc4c(c(=O)[nH]3)COCC4)CC2)cc1 [Compound C197]")
560000
>>> numeric_value("COc1ccc(C(=O)C2CCN(C(=O)CCCc3cn4ccnc4c(=O)[nH]3)CC2)cc1 [Compound C13]")
1200

* * *

The reader will find reported IC50 values listed item by item below.
assay-system: PARP-1 (Homo sapiens, UniProt P09874)
Construct: purchased Enzo Life Sciences GmbH, Lörrach, Germany
Sequence (P09874 whole entry): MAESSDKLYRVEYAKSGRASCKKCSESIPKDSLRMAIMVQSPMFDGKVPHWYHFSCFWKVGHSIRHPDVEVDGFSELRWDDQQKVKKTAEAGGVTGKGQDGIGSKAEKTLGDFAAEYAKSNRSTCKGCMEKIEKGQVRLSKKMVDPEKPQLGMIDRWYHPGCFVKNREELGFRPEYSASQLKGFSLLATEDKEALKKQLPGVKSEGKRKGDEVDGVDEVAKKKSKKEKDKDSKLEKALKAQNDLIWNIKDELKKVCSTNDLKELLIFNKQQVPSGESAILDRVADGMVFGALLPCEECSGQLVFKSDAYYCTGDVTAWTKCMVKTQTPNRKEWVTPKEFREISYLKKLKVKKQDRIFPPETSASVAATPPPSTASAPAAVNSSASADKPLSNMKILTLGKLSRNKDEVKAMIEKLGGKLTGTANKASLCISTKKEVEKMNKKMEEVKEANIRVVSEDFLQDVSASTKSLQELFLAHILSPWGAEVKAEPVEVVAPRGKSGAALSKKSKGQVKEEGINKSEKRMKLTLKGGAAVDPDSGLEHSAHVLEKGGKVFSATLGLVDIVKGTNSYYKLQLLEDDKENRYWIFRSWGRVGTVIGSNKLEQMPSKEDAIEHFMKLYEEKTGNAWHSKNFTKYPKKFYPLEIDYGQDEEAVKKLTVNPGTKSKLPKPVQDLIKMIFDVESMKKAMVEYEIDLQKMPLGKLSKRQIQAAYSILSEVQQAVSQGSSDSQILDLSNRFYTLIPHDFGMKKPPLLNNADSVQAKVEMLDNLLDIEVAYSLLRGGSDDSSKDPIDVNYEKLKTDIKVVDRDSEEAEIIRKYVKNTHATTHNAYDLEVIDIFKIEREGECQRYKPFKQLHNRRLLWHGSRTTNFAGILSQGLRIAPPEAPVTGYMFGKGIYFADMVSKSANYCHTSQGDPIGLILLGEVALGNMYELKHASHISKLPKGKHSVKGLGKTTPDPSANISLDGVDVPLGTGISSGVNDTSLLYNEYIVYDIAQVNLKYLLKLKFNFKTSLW
protocol-text: PARP-1 autoparsylation assay (HTRF)
Format: biochemical
particulars: His-tagged Parp-1, autoparsylation HTRF
quantity-measured: IC50 (µM)

>>> numeric_value("COc1ccc(C(=O)C2CCN(C(=O)CCCc3cn4c(C)cnc4c(=O)[nH]3)CC2)cc1")
17
>>> numeric_value("Cc1ccc(C(=O)C2CCN(C(=O)CCCc3nc4c(cnn4C)c(=O)[nH]3)CC2)cc1")
18
>>> numeric_value("COc1ccc(C(=O)C2CCN(C(=O)CCCc3nc4c(C)scc4c(=O)[nH]3)CC2)cc1")
1.1
>>> numeric_value("COc1ccc(C(=O)C2CCN(C(=O)CCCc3nn4cc(C)cc4c(=O)[nH]3)CC2)cc1")
2.4
